# Lookup of reported T/C keyed by entry
system: P388 leukemia ip, CD2F1 mice, survival T/C; test: NCI In Vivo Anticancer Drug Screen. Data for tumor model P388 Leukemia (intraperitoneal) in CD2F1 (CDF1) mice; conditions: endpoint: median survival time; dose: 15.0 mg/kg/injection; schedule: Q01DX005 (ip); vehicle: saline with Tween-80; higher = longer survival
Toxic doses and inconclusive results are not listed.
measure-name: T/C

                                   molecule   endpoint_result
0  O=C(c1ccccc1)c1c(CO[N+](=O)[O-])n([O-])c2ccccc2[n+]1=O  105 % of control
1  NS(=O)(=O)c1ccc(Nc2c3ccccc3nc3ncccc23)cc1   91 % of control
2                COc1cc(O)c(O)c(C(C)(C)C)c1  108 % of control
3  O=C(CSc1nnc(CSc2ccc(Cl)cc2)n1-c1ccccc1)NC(=O)Nc1ccccc1   90 % of control
4  COC(=O)C1=C(C)NC(C)=C(C(=O)OCCCN2CCC(c3ccccc3)(c3ccccc3)CC2)C1c1cccc([N+](=O)[O-])c1 (configuration not stated)  100 % of control
5  CN1C(=O)n2c(nc3ccccc32)C(N=[N+]=[N-])(N=[N+]=[N-])C1=O (configuration not stated)  108 % of control
6  COC(=O)C1=CN(CCc2ccc(O)cc2)C(=O)C2C1CC(O)C2C (configuration not stated)   93 % of control

* * *

test system: P388 leukemia ip, CD2F1 mice, survival T/C; experiment: NCI In Vivo Anticancer Drug Screen. Data for tumor model P388 Leukemia (intraperitoneal) in CD2F1 (CDF1) mice; settings: endpoint: median survival time; dose: 50.0 mg/kg/injection; schedule: Q01DX005 (ip); vehicle: saline with Tween-80; higher = longer survival
Toxic doses and inconclusive results are not listed. Square brackets hold non-standard residues; d marks the D form. Peptide text beside a SMILES is read from it. * marks the point of attachment. ξ: configuration not given here. Cbz = O=C(OCc1ccccc1)*; ξT = CC(O)C(N)C(=O)O; OBn = c1ccc(CO*)cc1
measure-name: T/C

In [3]: df
Out[3]:
                                    molecule  measure_name   endpoint_result
 0  C(=N\SC(c1ccccc1)(c1ccccc1)c1ccccc1)/c1ccccc1           T/C  100 % of control
 1  CCOC(=O)c1ccc(N)[n+](C2OC(COC(=O)c3ccccc3)C(OC(=O)c3ccccc3)C2OC(=O)c2ccccc2)c1 (stereo unspecified)           T/C   92 % of control
 2    O=C1OC(=O)c2ccc3c4c(ccc1c24)C(=O)OC3=O           T/C  104 % of control
 3  CC(O)C(NC(=O)OCc1ccccc1)C(=O)NCC(=O)NCC(=O)OCc1ccccc1 (stereo not drawn) (Cbz-[ξT]-Gly-Gly-OBn)           T/C  106 % of control
 4    CCOC(=O)C1=C(C)NC(C)=C(C(=O)OCC)C1(C)C           T/C  104 % of control
 5               CSc1cnn(-c2ccccc2)[n+]1[O-]           T/C   98 % of control
 6     CC(C)NC(=O)c1ccc(N/N=[N+](/C)[O-])cc1           T/C   92 % of control
 7  CC1C2c3ccccc3C(c3ccccc32)C1CO (stereo unspecified)           T/C   92 % of control
 8                     Cn1cc(Cl)c2ccccc2c1=O           T/C  101 % of control
 9                    CSc1nc2ncnn2c(=O)[nH]1           T/C   98 % of control
10  COC(=O)/C=C\C1(CC(C)C)N=C(c2ccccc2)OC1=O (stereo unspecified)           T/C  104 % of control

* * *

# Lookup of reported T/C keyed by entry
test system: P388 leukemia ip, CD2F1 mice, survival T/C; test: NCI In Vivo Anticancer Drug Screen. Data for tumor model P388 Leukemia (intraperitoneal) in CD2F1 (CDF1) mice; conditions: endpoint: median survival time; dose: 25.0 mg/kg/injection; schedule: Q01DX009 (ip); vehicle: saline with Tween-80; higher = longer survival
Inconclusive results and toxic doses are left out.
measure-name: T/C

compound	endpoint-result
CC1(C)CC(=O)C=C(NCc2ccccc2)C1	104 % of control
COc1cc2c(cc1OC)-c1c3c(cc4c1[C@@H](C2)N(C)CC4)OCO3	100 % of control
O=C1C(=O)c2ccccc2C(O)=C1CCCc1ccc(C2CCCCCC2)cc1	86 % of control
COc1ccc(CN2CCCN(/N=C/c3c4c(O)c5c(O)c(C)c6c(c5c3O)C(=O)C(C)(O/C=C/C(OC)C(C)C(OC(C)=O)C(C)C(O)C(C)C(O)C(C)/C=C/C=C(C)C(=O)N4)O6)CC2)cc1 (stereo not drawn)	117 % of control
COc1cc(/C=C/C(=O)CC(=O)/C=C/c2ccc(O)c(OC)c2)ccc1O	100 % of control
CC1(C)N=C(N)N=C(N)N1c1ccc(OCC(=O)Nc2ccccc2)c(Cl)c1	100 % of control
O=[N+]([O-])c1ccc(NS(=O)(=O)c2cccs2)c([N+](=O)[O-])c1	103 % of control
Clc1c(CBr)ccc(CBr)c1Cl	100 % of control
COc1ccc(/C(C#N)=C/c2ccccc2)cc1	86 % of control
O/N=c1\cc(-c2ccccc2)oc2ccccc12	102 % of control
O=C(c1ccc(Cl)cc1)c1no[n+]([O-])c1C(=O)c1ccc(Cl)cc1	115 % of control
O=C(/C=C/c1ccccc1)n1nnc2cc(Cl)c(Cl)cc21	115 % of control
C#CCOc1ccc(C)cc1	108 % of control
CCOC(=O)N1C(=O)c2ccccc2C1=O	110 % of control
CN1/C(=C/C=C/C(I)=C/C=C/C2=[N+](C)c3ccccc3C2(C)C)C(C)(C)c2ccccc21	124 % of control
CC(C)=CC(=O)CC(O)(C(F)(F)F)C(F)(F)Cl (stereo not drawn)	109 % of control
CC1(CO)CSC(Nc2ccc(Cl)c(Cl)c2)=N1 (stereo not drawn)	104 % of control
C(=N\N1CCCCCC1)/c1ccc2c(c1)OCO2	90 % of control
N=C(N)SCc1nc(-c2ccc(Cl)cc2)no1	106 % of control
CC(C)CC(NC(=O)CCl)C(=O)O (stereo not drawn)	108 % of control
O=C(/C=C/c1c2ccccc2cc2ccccc12)c1ccc(C(=O)/C=C/c2c3ccccc3cc3ccccc23)cc1	90 % of control
Cc1ccc(C(O)(CS(C)=O)c2ccco2)cc1 (stereo not drawn)	100 % of control
Cc1cc(O)c(C(c2ccccc2)c2c(O)cc(C)[nH]c2=O)c(=O)[nH]1	90 % of control
CO[C@H]1/C=C/O[C@@]2(C)Oc3c(C)c(O)c4c(O)c(c(/C=N/N5C(C)CN(Cc6ccc(C#N)cc6)CC5C)c(O)c4c3C2=O)NC(=O)/C(C)=C\C=C\[C@H](C)[C@H](O)[C@@H](C)[C@@H](O)[C@@H](C)[C@H](OC(C)=O)[C@@H]1C (stereo partly drawn)	92 % of control
CNc1ncnc2ccccc12	100 % of control
CCC(C)C(=O)Nc1ccccc1-c1ccccc1 (stereo not drawn)	100 % of control
C=CC(=O)NCCSSCCNC(=O)C=C	93 % of control
Nc1ccc(C(=O)c2ccccc2)cc1	93 % of control
O=c1[nH]nc(-c2ccc([N+](=O)[O-])o2)o1	97 % of control
COc1cc(NC(=O)CCl)ccc(=O)c1	113 % of control
Oc1c(Cl)cc(Cl)cc1C1Nc2ccccc2-n2cccc21 (stereo not drawn)	91 % of control
Cc1cn(O)cc(C)c1=N	100 % of control
COc1ccccc1N1CCN(CCc2c[nH]c3cc4c(cc23)OCO4)CC1	101 % of control

* * *

# Lookup of reported T/C keyed by entry
tested on: P388 leukemia ip, CD2F1 mice, survival T/C; assay: NCI In Vivo Anticancer Drug Screen. Data for tumor model P388 Leukemia (intraperitoneal) in CD2F1 (CDF1) mice; settings: endpoint: median survival time; dose: 50.0 mg/kg/injection; schedule: Q01DX005 (ip); vehicle: saline with Tween-80; higher = longer survival
Toxic doses and inconclusive results are not listed.
measure-name: T/C

>>> print(df.to_string())
                                   compound  measure_name   endpoint_result
0  CCOc1ccccc1NC(=O)CC(=O)N1N=C(c2ccccc2)C(N=Nc2ccc(S(N)(=O)=O)cc2)C1=O (centres undefined)           T/C  110 % of control
1  Cc1cc2nc(=O)cc(CCl)n2c(=O)n1C(=O)C(O)C(O)C(O)CO (centres undefined)           T/C  109 % of control
2  CC(=O)OCC1OC(n2c(Br)nc3c(=O)[nH]c(N)nc32)C(OC(C)=O)C1OC(C)=O (centres undefined)           T/C  102 % of control
3     CCN(CC)CCCNCc1cc(-c2ccccc2)nc2ccccc12           T/C  101 % of control

Data provenance is PubChem BioAssay AID330.
